- EXPERIMENTAL TARGET: Human immunodeficiency virus type 1 integrase (Human immunodeficiency virus 1)
- MEASUREMENT NOTES: Inhibitory effect on strand transfer of proximal DNA into host DNA in an extracellular HIV-1 integrase assay in experiment 2
OBSERVABLE: IC50 (µM)

O=C(CC(=O)c1c[nH]c2ccccc12)c1nnn[nH]1    2

(P) O=C(O)C(=O)/C=C(\O)c1ccc(Oc2ccccc2)cc1
(Q) O=C(O)C(=O)/C=C(\O)c1cccc(Br)c1
Recorded IC50 values differ for P and Q ; which one is higher? Write down the label of the entry you select.
P

* * *

- EXPERIMENTAL TARGET: Human immunodeficiency virus type 1 integrase (Human immunodeficiency virus 1, UniProt Q7ZJM1)
- Sequence (Q7ZJM1 whole entry): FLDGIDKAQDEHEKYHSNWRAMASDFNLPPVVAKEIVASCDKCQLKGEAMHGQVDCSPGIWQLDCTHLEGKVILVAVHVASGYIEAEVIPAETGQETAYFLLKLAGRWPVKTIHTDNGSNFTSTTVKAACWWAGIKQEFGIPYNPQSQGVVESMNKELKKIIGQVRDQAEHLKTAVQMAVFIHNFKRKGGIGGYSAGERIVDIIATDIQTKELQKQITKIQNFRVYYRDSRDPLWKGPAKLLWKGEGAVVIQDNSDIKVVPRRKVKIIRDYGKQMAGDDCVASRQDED
This section presents molecules with their documented IC50 values.

O=C(O)C(=O)/C=C(\O)c1cc(OCc2ccccc2)cc(OCc2ccccc2)c1    > 1000 µM
O=C(CC(=O)c1c[nH]c2ccc(F)cc12)c1nnn[nH]1    79 µM

Request the reported IC50 associated with "O=C(O)C(=O)/C=C(\O)c1cccc(/C(O)=C/C(=O)C(=O)O)c1"
7.8 µM

Request the reported IC50 associated with "O=C(O)C(=O)/C=C(\O)c1ccc(Oc2ccccc2)cc1"
> 100 µM

Request the reported IC50 associated with "COc1ccc(Cn2nnnc2C(=O)/C=C(\O)c2c[nH]c3ccccc23)cc1"
> 100 µM

Request the reported IC50 associated with "COc1ccc(Cn2nnnc2C(=O)/C=C(\O)c2c[nH]c3ccc(Cl)cc23)cc1"
> 100 µM

Request the reported IC50 associated with "COc1cc(Cn2nnnc2C(=O)/C=C(\O)c2c[nH]c3ccccc23)cc(OC)c1"
> 100 µM

Request the reported IC50 associated with "O=C(O)C(=O)/C=C(\O)c1c[nH]c2ccccc12"
> 100 µM

Request the reported IC50 associated with "O=C(O)C(=O)/C=C(\O)c1cccc(Br)c1"
> 100 µM

Request the reported IC50 associated with "O=C(CC(=O)c1c[nH]c2ccccc12)c1nnn[nH]1"
> 100 µM

Request the reported IC50 associated with "O=C(O)C(=O)/C=C(\O)c1cccc(NC(=O)c2ccccc2)c1"
> 100 µM

Request the reported IC50 associated with "COc1ccc(Cn2nnnc2C(=O)/C=C(\O)c2cc(OCc3ccccc3)cc(OCc3ccccc3)c2)cc1"
> 100 µM

Request the reported IC50 associated with "O=C(O)C(=O)/C=C(\O)c1cc(/C(O)=C/C(=O)C(=O)O)c2ccccc2n1"
82 µM

Request the reported IC50 associated with "O=C(O)c1ccc2[nH]cc(C(=O)CC(=O)c3nnn[nH]3)c2c1"
40 µM

Request the reported IC50 associated with "CCOC(=O)C(=O)/C=C(\O)c1c[nH]c2ccc(Cl)cc12"
> 100 µM

Request the reported IC50 associated with "O=C(O)C(=O)/C=C(\O)c1ccnc2ccccc12"
> 100 µM

Hello, the source for this data is ChEMBL document CHEMBL1135511, in case you need it.
